Assign pH 6.0/7.4 kd to each entry below.
# ASSAY_SYSTEM: T1, monovalent hVISTA-ECD (human VISTA extracellular domain with His tail) (human, UniProt Q9H7M9 33-193)
# T1 construct: analyte flowed over captured antibody; also called huVISTA-His
# T1 sequence (Q9H7M9 other isoform, or with tags, fused parts or gaps limits assumed): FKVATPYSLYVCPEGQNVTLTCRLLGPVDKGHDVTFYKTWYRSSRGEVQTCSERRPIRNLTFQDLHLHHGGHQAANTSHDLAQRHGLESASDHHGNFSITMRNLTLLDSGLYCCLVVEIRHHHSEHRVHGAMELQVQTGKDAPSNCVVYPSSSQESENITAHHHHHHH
# ASSAY_TEXT: SPR

Lookup: Look up and state reported pH 6.0/7.4 kd for P1-064392 (41F11_HC_Mutant: D31E/Y50W/S55E/Y100E 41F11_LC_Mutant: V29D/A64G/Q89E/R91T) (antibody, V domains shown, Kabat positions; also called P1-064392-1) VH: QVQLVESGGGLVKPGGSLRLSCAASGFTFSEYYMSWIRQAPGKGLEWVSWISNSGEPIYYADSVKGRFTISRDNAKNSLYLQMNSLRAEDTAVYYCARDLPGWEFDLWGRGTLVTVSS VL: EIVLTQSPATLSLSPGERATLSCRASQSDSSYLAWYQQKPGQAPRLLIYDASNRATGIPARFSGSGSGTDFTLTISSLEPEDFAVYYCEQTNNWPRTFGQGTKVEIK
Found: 1.2

Lookup: Look up and state reported pH 6.0/7.4 kd for P1-063153 (41F11_HC_mutant: D31E/Y50W/S55E/Y100E) (antibody, V domains shown, Kabat positions; also called P1-063153-5) VH: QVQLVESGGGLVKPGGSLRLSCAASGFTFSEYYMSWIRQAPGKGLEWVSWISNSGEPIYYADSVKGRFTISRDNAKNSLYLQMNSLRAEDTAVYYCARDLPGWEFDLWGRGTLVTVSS VL: EIVLTQSPATLSLSPGERATLSCRASQSVSSYLAWYQQKPGQAPRLLIYDASNRATGIPARFSASGSGTDFTLTISSLEPEDFAVYYCQQRNNWPRTFGQGTKVEIK
Found: 3.9
